# System Under Test: T1, IL-18R on HEK-Blue IL18R reporter cells (UniProt Q13478 19-541; O95256 20-599)
# T1 sequence (looked up) 1: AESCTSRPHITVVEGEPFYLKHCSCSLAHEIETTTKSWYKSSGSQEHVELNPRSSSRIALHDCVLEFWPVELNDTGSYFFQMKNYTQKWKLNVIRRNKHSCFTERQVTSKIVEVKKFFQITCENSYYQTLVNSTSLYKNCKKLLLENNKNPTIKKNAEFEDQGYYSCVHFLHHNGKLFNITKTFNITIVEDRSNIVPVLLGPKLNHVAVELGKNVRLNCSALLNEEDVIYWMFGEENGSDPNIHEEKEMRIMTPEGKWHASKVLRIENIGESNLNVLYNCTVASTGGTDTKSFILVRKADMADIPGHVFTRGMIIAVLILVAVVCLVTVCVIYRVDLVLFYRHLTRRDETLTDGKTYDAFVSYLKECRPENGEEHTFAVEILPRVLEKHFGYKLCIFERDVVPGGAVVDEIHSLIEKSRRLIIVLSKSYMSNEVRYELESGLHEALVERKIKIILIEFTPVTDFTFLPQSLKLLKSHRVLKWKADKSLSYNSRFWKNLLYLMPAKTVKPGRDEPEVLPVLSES
# T1 sequence (looked up) 2: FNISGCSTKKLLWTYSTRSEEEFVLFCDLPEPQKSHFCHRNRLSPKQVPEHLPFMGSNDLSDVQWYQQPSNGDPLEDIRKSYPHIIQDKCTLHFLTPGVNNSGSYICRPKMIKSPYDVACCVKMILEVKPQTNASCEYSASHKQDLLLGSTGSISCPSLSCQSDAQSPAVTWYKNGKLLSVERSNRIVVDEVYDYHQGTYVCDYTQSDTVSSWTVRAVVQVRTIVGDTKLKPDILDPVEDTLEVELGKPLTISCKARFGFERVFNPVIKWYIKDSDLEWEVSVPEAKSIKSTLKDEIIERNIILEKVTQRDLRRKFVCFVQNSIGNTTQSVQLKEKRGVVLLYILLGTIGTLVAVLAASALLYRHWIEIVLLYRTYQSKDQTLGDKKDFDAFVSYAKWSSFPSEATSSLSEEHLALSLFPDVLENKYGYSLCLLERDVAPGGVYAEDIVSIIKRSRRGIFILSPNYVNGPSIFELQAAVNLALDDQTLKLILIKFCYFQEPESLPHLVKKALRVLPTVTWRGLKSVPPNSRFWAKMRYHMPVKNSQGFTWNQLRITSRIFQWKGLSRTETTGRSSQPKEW
# Protocol Details: cell-based or functional assay
Give EC50, HEK-Blue IL18R SEAP reporter for every item shown.
Numbers only, in pM.

Some solved cases for reference:
Binder: IL-18 polypeptide C157 (ligand) YFGKLESKLSIIRNLNDQVLFIDQGNRPLFEDMTDSDARDNAPRTIFIISMYADSQPRGMAVTISVKCEKISTLSAENKIISFKEMNPPDNIKDTKSDIIFFQRSVPGHDNKMQFESSSYEGYFLAAEKERALFKLILKKEDELGDRSIMFTVQNED
Units Symbol: pM
EC50, HEK-Blue IL18R SEAP reporter: 1.95

Binder: IL-18 polypeptide C155 (ligand) YFGKLESKLSIIRNLNDQVLFIDQGNRPLFEDMTDSDARANAPRTIFIISMYADSQPRGMAVTISVKCEKISTLSAENKIISFKEMNPPDNIKDTKSDIIFFQRSVPGHDNKMQFESSSYEGYFLAAEKERDLFKLILKKEDELGDRSIMFTVQNED
Units Symbol: pM
EC50, HEK-Blue IL18R SEAP reporter: 0.52

Binder: IL-18 polypeptide C159 (ligand) YFGKLESKLSIIRNLNDQVLFIDQGNRPLFEDMTDSDARDNAPRTIFIISMYADSQPRGMAVTISVKCEKISTLSAENKIISFKEMNPPDNIKDTKSDIIFFQRSVPGADNKMQFESSSYEGYFLAAEKERDLFKLILKKEDELGDRSIMFTVQNED
Units Symbol: pM
EC50, HEK-Blue IL18R SEAP reporter: 19.5

Next item in the queue.
// IL-18 polypeptide C163 (ligand) YFGKLESKLSIIRNLNDQVLFIDQGNRPLFEDMTDSDARDNAPRTIFIISMYKDSQPRGMAVTISVKCEKISTLSAENKIISFKEMNPPDNIKDTKSDIIFFKRSVPGHDNKMQFESSSYEGYFLAAEKERDLFKLILKKEDELGDRSIMFTVQNED : EC50, HEK-Blue IL18R SEAP reporter value = 1.5

Ref: patent US20250188166A1
